Target: CHO-CHOP luciferase reporter, UPR activation, luminescence
Experiment: CHOP reporter induction, apoptotic UPR branch – CHO-CHOP cells, luciferase luminescence, confirmation (AID 489024);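 note: compounds added alone to reporter cells with no tunicamycin stress co-treatment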
The source made the active and inactive calls.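 Rule for the calls: active = compounds whose mean EC50, the dose giving half the maximal reporter activation, is at or below a set limit; inactive = the rest.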
# valid calls are true (1) (active), false (0) (inactive); nothing else

Record excerpt, results attached:
1. O=C(CCN1C(=O)/C(=C\c2ccccc2F)SC1=S)N1CCCCC1: false (0)
2. CCc1cc(C(=O)c2ccc(C)cc2)c(NC(=O)CCl)s1: true (1)
3. Oc1[nH]c2ccc(Br)cc2c1N=NC(=S)N1CCOCC1: true (1)
4. O=C(CSc1nc2ccc(Nc3nc(N4CCOCC4)nc(N4CCOCC4)n3)cc2s1)Nc1ccccc1F: true (1)
5. O=C(Nc1nccs1)c1cccc(N2C(=O)c3cccc4c([N+](=O)[O-])ccc(c34)C2=O)c1: true (1)
6. Cc1ccc(NC(=O)c2ccc([N+](=O)[O-])o2)cc1S(=O)(=O)N1CCOCC1: true (1)

Challenge: // return assay outcome for CCOC(=O)C1=C(Cc2ccc(Cl)cc2)C(=O)c2ccccc2C1=O
Response given: false (0)

Challenge: Which outcome was entered for the molecule O=C(CN1CCN(c2ccccc2F)CC1)c1ccc(O)c(O)c1 in this test?
Response given: false (0)

Challenge: In this assay, the call recorded for Oc1ccc(/C=N/Nc2nc(N3CCCC3)nc(N3CCCC3)n2)cc1O was what?
Response given: true (1)

Challenge: Hey, what did the test say about COC(=O)c1c(NC(=O)c2ccc([N+](=O)[O-])o2)sc2c1CCN(C(C)C)C2 ?
Response given: true (1)

Challenge: How did this test come out for Nc1cccc(-c2nc3cc(S(=O)(=O)c4ccc5oc(-c6cccc(N)c6)nc5c4)ccc3o2)c1 ?
Response given: false (0)

Challenge: Give the logged outcome of this assay for the following molecule: Cc1cccc(Nc2nc(-c3ccccn3)cs2)n1
Response given: true (1)
